Ref: PubChem BioAssay (NCI)

# Test system: RPMI-8226 leukemia
# assayName: NCI-60 one-dose screen, 48 h (100 = growth as untreated, 0 = no growth, -100 = all killed)
# setupConditions: 10 µM unless noted
Compounds without any hit were thinned out: in the full panel of roughly 83,000, 20% have a hit.
Attribute: growth
Field format: number, assumed %, no unit text.

State the recorded growth for this entry: NC(=O)c1cc(Br)ccc1NC(=O)/C=C/c1ccccc1
24.4

State the recorded growth for this entry: O=C(O)c1ccc(NC(=O)c2ccc(-c3cccc([N+](=O)[O-])c3)o2)cc1
101

State the recorded growth for this entry: CCN(CC)CCCCNc1c2ccc(Cl)cc2nc2ccc(OC)cc12
-33.9

State the recorded growth for this entry: COc1ccc2c(c1)CC/C(=C\c1cncc(Br)c1)C2=O
8.06

State the recorded growth for this entry: COc1cccc(-c2nc3sccn3c2-c2ccnc(NCCNS(=O)(=O)c3ccc(F)cc3)c2)c1
-14.1

State the recorded growth for this entry: c1ccc(-c2c(-c3ccccc3)[n+](Cc3ccc4ccccc4c3)c(-c3ccc(-c4nc5ccccc5s4)cc3)n2Cc2ccc3ccccc3c2)cc1
-40.5

State the recorded growth for this entry: COc1ccc(/C=C/C(=O)c2cc(O)ccc2O)cc1
45.8

State the recorded growth for this entry: N#CCCN=Nc1c(O)[nH]c2ccc([N+](=O)[O-])cc12
105

State the recorded growth for this entry: COc1ccc(-c2n[nH]nc2-c2csc3ccccc23)cc1OC
34.8

State the recorded growth for this entry: C=CCSSC1N=CNc2nc[nH]c21 (stereo not given)
-15.1

----------
Attribute: growth
# System: PC-3 prostate
# assayName: NCI-60 one-dose screen, 48 h (100 = growth as untreated, 0 = no growth, -100 = all killed)
# setupConditions: 10 µM unless noted
The panel holds about 83,000 compounds, 20% with a hit somewhere; the sample as a whole holds those more often.
Field format: number, assumed %, no unit text.

The examples below pair each entry with its known result.
[[record]]
molecule = "Cc1cc(N2CCN(C)CC2)nc(NC2CCCC(Nc3ccnc4cc(Cl)ccc34)C2)n1 (stereo not given)"
valuekind = "growth"
experimentalvalue = 8.55

[[record]]
molecule = "COc1ccc(/C=C/c2nc(-c3n[nH]c(=O)n3-c3ccccc3)c3ccccc3n2)cc1"
valuekind = "growth"
experimentalvalue = 95.9

[[record]]
molecule = "O=C(O)c1ccc(N=CC(=O)c2ccc(-c3ccccc3)cc2)cc1"
valuekind = "growth"
experimentalvalue = 86.2

[[record]]
molecule = "O=C1NC(=S)N[C@H]1CC(=O)n1cnc2ccccc21"
valuekind = "growth"
experimentalvalue = 101

[[record]]
molecule = "Cc1cc(N2CCN(c3ccnc4cc(Cl)ccc34)CC2)nc(NC2CCCCC2)n1"
valuekind = "growth"
experimentalvalue = 22.2


State the recorded growth for this entry: COc1cc2c(cc1-c1c(C)noc1C)ncc1nc(C3CCCC3)n([C@H](C)COC(F)F)c12
31.8

State the recorded growth for this entry: COc1cc(-c2nn(-c3ccc(Br)cc3)cc2C(=O)O)ccc1O
97.2

State the recorded growth for this entry: CCCCn1c(-c2ccc(C(=O)O/N=C(\N)c3ccc4ccccc4c3)cc2)nc(-c2ccccc2)c1-c1ccccc1
64.8

State the recorded growth for this entry: COc1ccc(-c2cc(NC(=O)Nc3ccc4ncsc4c3)no2)cc1
92.6

State the recorded growth for this entry: O=C1C=C(O)C(=O)C(CC2=C(O)C(=O)C=C(O)C2=O)=C1O
95.2
